Where do the numbers come from? From PubChem BioAssay.

- ASSAY: COS7 lysate on small-molecule microarray, probe aHis, 635 nm (AID 1123);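 further: z-score combines 667nm fluorescence intensity with signal-to-noise per printed compound spot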
- MEASUREMENT CONDITIONS: COS7 cell lysate, fluorescence, higher = more signal
PROPERTY LABEL: composite z-score
Lab note: jot down the number only; don't add units.

{"MOLECULE": "CCN(CC)c1ccc(N2CC=CC34O[C@@H]5C=CCOC(=O)[C@@H]5[C@H]3C(=O)N(C(CO)C(C)C)[C@@H]4C2=O)cc1 (some centres undefined)", "composite z-score": -0.408}
{"MOLECULE": "COC(=O)c1c(CC[C@@H](CO)NC(=O)Nc2ccc(OC)cc2)oc(C(=O)Cc2ccccc2)c1C(=O)OC", "composite z-score": 0.261}
{"MOLECULE": "COCCOC(=O)N1C(=O)[C@@]2(c3cc(C#CC4(O)CCCCCC4)ccc31)[C@H](c1ccc(O)cc1)N1[C@H](c3ccccc3)[C@H](c3ccccc3)OC(=O)[C@H]1[C@@H]2C(N)=O", "composite z-score": 1.81}
{"MOLECULE": "C=C[C@H](OC)[C@@H](OC(=O)Nc1ccc(OC)cc1)c1ccc(OC)c(O)c1", "composite z-score": -0.844}
{"MOLECULE": "CC(C)C[C@@H]1NC(=O)[C@@]23C(=O)N[C@@H](Cc4ccccc4)C2[C@H](C)[C@@]2(C)O[C@H]2C3/C=C/CC/C=C/CNC(=O)[C@@H](C)NC1=O (some centres undefined)", "composite z-score": -0.262}
{"MOLECULE": "COc1ccc(C#Cc2ccc3c(c2)[C@]2(C(=O)N3)[C@H](c3ccc(O)cc3)N3[C@H](c4ccccc4)[C@H](c4ccccc4)OC(=O)[C@H]3[C@@H]2C(N)=O)cc1", "composite z-score": 1.25}

Q: I would be grateful if you could share the reported composite z-score for C=CCNC(=O)[C@@H]1[C@H]2C(=O)O[C@H](c3ccccc3)[C@H](c3ccccc3)N2[C@H](c2ccc(O)cc2)[C@@]12C(=O)N(C(=O)OCCOC)c1ccc(C#Cc3ccc(OC)cc3)cc12 .
Result: 1.46

Q: Please answer likewise for C=C(C1=CCN(S(=O)(=O)c2ccc(C)cc2)C1)[C@@H](OC(C)=O)[C@@H]1CCCN1S(=O)(=O)c1ccccc1[N+](=O)[O-]
Result: 0.586

Q: Please answer likewise for COc1ccc(CCNC(=O)[C@@]2(Sc3ccc(C)cc3)CC(=O)N(Cc3ccccc3)[C@@H]2c2ccc(CO)cc2I)cc1
Result: 0.666

Q: Please answer likewise for C=C(CCCC)/C(=C/C[C@@H](OC(=O)c1ccncc1)c1ccc(OCCO)cc1)c1cnc2ccccc2c1
Result: 0.814

Q: Please answer likewise for COCCCNC(=O)[C@@]1(Cc2ccccc2CN=[N+]=[N-])COC(c2ccc(OCCCO)cc2)=N1
Result: 2.83

Q: Please answer likewise for CC(C)[Si](C#C[Si](C(C)C)(C(C)C)C(C)C)(O[C@H](C)c1cn([C@H](C)c2ccccc2)nn1)C(C)C
Result: 0.386

Q: Please answer likewise for CC(C)C[C@@H]1NC(=O)[C@@H]2C[C@H](C(=O)NCCCCCNC(=O)CS)[C@H](c3cccc(OCCO)c3)N2C1=O
Result: 1.47

Q: Please answer likewise for CC(C)(C)OC(=O)CC[C@]1(C(=O)NCc2ccccc2)COC(c2ccc(OCCCO)cc2)=N1
Result: 2.41
